# methodSummary: Drug repurposing screens with cells derived from glioblastoma tumor samples (AID 1345199); further: on the % scale 0 is the no-effect control and ±100 the full control effect; nearly all actives have a fitted effect of over 40% in size
# conditionDetails: GBM patient neurospheres viability, ATP luminescence, 48 h; at 45.9 µM (top of the series); tumour line B
Inconclusive results are not listed.
attributeMeasured: activity, negative = cell killing (%)
# value in %; strip the unit string

A selection of reference data follows.
compound: CCCN(CCC)CCc1cccc2c1CC(=O)N2
readingUnit: %
activity, negative = cell killing: -4.59

compound: CO[C@@]1(NC(=O)CSCC#N)C(=O)N2C(C(=O)O)=C(CSc3nnnn3C)CS[C@@H]21
readingUnit: %
activity, negative = cell killing: -13.1

compound: CC(=O)Nc1nnc(S(N)(=O)=O)s1
readingUnit: %
activity, negative = cell killing: -5.69

compound: Cc1scc2c1N(C(=O)CN1CCN(C)CC1)c1ccccc1NC2=O
readingUnit: %
activity, negative = cell killing: -11.6

Given item `CN(C)CC/C=C1\c2ccccc2COc2ccccc21` , the value recorded as its activity, negative = cell killing is -27.9

The compound `CN(C(=O)CCCOc1ccc2[nH]c(=O)ccc2c1)C1CCCCC1` showed activity, negative = cell killing equal to -16.8

Record `O=C(CCNNC(=O)c1ccncc1)NCc1ccccc1` . Reported activity, negative = cell killing: -4.66

Per the records, this compound ( NS(=O)(=O)c1cc2c(cc1Cl)NC(C1CC3C=CC1C3)NS2(=O)=O (stereo not drawn) ) has activity, negative = cell killing equal to 0.786

Entry `O=C1CC2(CCCC2)CC(=O)N1CCCCN1CCN(c2ncccn2)CC1` , activity, negative = cell killing reported as -25.4

Notebook: `CN1CCN(CC(=O)N2c3ccccc3C(=O)Nc3cccnc32)CC1` , activity, negative = cell killing read as -1.68

Given item `Brc1c(NC2=NCCN2)ccc2nccnc12` , the value recorded as its activity, negative = cell killing is -5.79

activity, negative = cell killing reading for CCn1ccnc1CC1COc2ccccc2O1 (stereo not drawn) : -17.6

Notebook: `O=C(O)CCCCCCCC(=O)O` , activity, negative = cell killing read as -8.57

activity, negative = cell killing reported for this compound CC(C(=O)O)c1ccc(CC2CCCC2=O)cc1 (stereo not drawn) : -3.22

Summary for this compound, `C[C@H](CS)C(=O)N1CCC[C@H]1C(=O)O` : activity, negative = cell killing is 1.21

The reported activity, negative = cell killing of the compound `CCCCNC(=O)NS(=O)(=O)c1ccc(C)cc1` was -7.32

Form field activity, negative = cell killing, entry CCCNC(C)C(=O)Nc1ccccc1C (stereo not drawn) : -20

Entry under test: `CC(=O)[C@@]1(O)CC[C@H]2[C@@H]3CCC4=CC(=O)CC[C@]4(C)[C@H]3CC[C@@]21C` . Its activity, negative = cell killing was -19.9

---

# Test system: MCC-26
# methodSummary: qHTS assay to identify novel small-molecules to repurpose for Merkel cell carcinoma treatment (AID 1296009); further: on the % scale 0 is the no-effect control and ±100 the full control effect; nearly all actives have a fitted effect of over 60% in size
# conditionDetails: MCC and control cell lines, CellTiter-Glo viability, 72 h; series mostly up to 46 µM
Results filed as inconclusive are left out. The source made the active and inactive calls. The call rests on the fitted dose curve; in most records, active means well fitted inhibition curve with a large enough effect; inconclusive means small, poorly fitted or top-dose-only effect; inactive means flat fitted curve, though single readings scatter.
Hello, when you answer, please use one of the following outcomes: T for active, F for inactive

Example entries and their recorded answers appear below.
compound: CCn1ccnc1CC1COc2ccccc2O1 (stereo not drawn)
discreteLabel: F
//
compound: COCCOC(=O)C1=C(C)NC(C)=C(C(=O)OC(C)C)C1c1cccc([N+](=O)[O-])c1 (stereo not drawn)
discreteLabel: F
//
compound: CCN1CCC[C@H]1CNC(=O)c1c(O)c(Cl)cc(Cl)c1OC
discreteLabel: F
//
compound: CC(C(=O)O)c1ccc(CC2CCCC2=O)cc1 (stereo not drawn)
discreteLabel: F
//
compound: CCCCNc1ccc(C(=O)OCCN(C)C)cc1
discreteLabel: F
//
compound: C[C@H](CS)C(=O)N1CCC[C@H]1C(=O)O
discreteLabel: F

// param item: `O=C(O)CCCCCCCC(=O)O` ; yields the recorded call F

Recorded test call requested for `O=c1[nH]c(=O)n([C@H]2C[C@H](O)[C@@H](CO)O2)cc1Br` F

Given `Cc1nc2sccn2c(=O)c1CCN1CCC(=C(c2ccc(F)cc2)c2ccc(F)cc2)CC1` , state the outcome it received in this test. F

# lookup: test call for CCCNC(C)C(=O)Nc1ccccc1C (stereo not drawn) F

Returns: the outcome recorded for `C[C@@H](O)[C@H]1C(=O)N2C(C(=O)O)=C(SCCN=CN)C[C@H]12` in this assay. F

What was the test verdict on `COc1ccc(CN(CCN(C)C)c2ccccn2)cc1` ? F

What outcome does the record of this test show for `CC(=O)Oc1cc(C(C)C)c(OCCN(C)C)cc1C` ? F

---

# methodSummary: qHTS assay for measurement of the activity of small molecule inhibitors on Zika virus induced Caspase-3 activity in human iPSC derived neural progenitor cells (hNPCs) (AID 1224857); further: % of control where 0% means no effect; nearly all actives have a fitted effect of over 65% in size
# conditionDetails: hNPCs ZIKV-induced caspase-3/7, Caspase-Glo luminescence, 6 h; series mostly up to 45.7 µM
Inconclusive results are not listed. Activity calls are given as the source filed them. Calls follow the shape of the dose curve; as a rule, active = well fitted inhibition curve with a large enough effect; inconclusive = small, poorly fitted or top-dose-only effect; inactive = no such curve, though single readings can be large or run the other way.
attributeMeasured: outcome

The following compounds have reported results that may help.
structureNotation: C[N+](C)(C)CCOC(N)=O
observedResult: inactive

structureNotation: O=C(O)CCCCCCCC(=O)O
observedResult: inactive

structureNotation: CC1=NS(=O)(=O)c2cc(Cl)ccc2N1
observedResult: inactive

structureNotation: O=C1CC2(CCCC2)CC(=O)N1CCCCN1CCN(c2ncccn2)CC1
observedResult: inactive

structureNotation: O=C(CCCN1CCC(O)(c2cccc(C(F)(F)F)c2)CC1)c1ccc(F)cc1
observedResult: inactive

The compound listed as `CC(=O)Nc1nnc(S(N)(=O)=O)s1` has a reported outcome of inactive

Sure, the documented outcome for `NC(=O)N1c2ccccc2C=Cc2ccccc21` is inactive

Measured outcome, `CCCCNc1ccc(C(=O)OCCN(C)C)cc1` : inactive

---

# methodSummary: qHTS Assay for Lipid Storage Modulators (AID 1519)
# conditionDetails: Drosophila S3 cells, BODIPY lipid droplet/cell ratio, laser cytometry; measured here: lipid channel max response; cells loaded with oleic acid
Results filed as inconclusive are left out.
So basically: max response at 10% or higher? That is Y. Lower than 10%? That is N.

compound: CC(=O)OC(C)C[N+](C)(C)C (stereo not given)
discreteLabel: Y
//
compound: COc1cc(C(=O)OCCCN2CCCN(CCCOC(=O)c3cc(OC)c(OC)c(OC)c3)CC2)cc(OC)c1OC
discreteLabel: N
//
compound: COCC(=O)O[C@]1(CCN(C)CCCc2nc3ccccc3[nH]2)CCc2cc(F)ccc2[C@@H]1C(C)C
discreteLabel: N
//
compound: c1cc(CN2CCCCC2)cc(OCCCNc2nc3ccccc3s2)c1
discreteLabel: Y
//
compound: Fc1ccc(C(c2ccc(F)cc2)N2CCN(C/C=C/c3ccccc3)CC2)cc1
discreteLabel: Y

Now examine the next entry.
Determine whether this compound has max response no lower than 10%: `C#CCN(C)CCCOc1ccc(Cl)cc1Cl` N

---

# methodSummary: NFAT Signaling Pathway (AID 444);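 further: carbachol stimulus at about its EC50 of 1 µM final; on the % scale 0 is the no-effect control and ±100 the full control effect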
# conditionDetails: Jurkat NFAT-bla M1, carbachol, beta-lactamase ratio, 5 h; at 17.2 µM (top of the series)
Records with an inconclusive call do not appear.
Reported activity change, negative = inhibition values are given for each entry in this list.
The figure you give is taken to be in %; do not add the unit.

Some compounds with known activity change, negative = inhibition results, for comparison:
compound: CCCN(CCC)C(=O)C(CCC(=O)O)NC(=O)c1ccccc1 (stereo not given)
activity change, negative = inhibition, %: -1.88

compound: C[C@]12CCC(=O)C=C1CC[C@@H]1[C@@H]2C(=O)C[C@@]2(C)[C@H]1CC[C@]2(O)C(=O)CO
activity change, negative = inhibition, %: -6.84

compound: COCCCC/C(=N\OCCN)c1ccc(C(F)(F)F)cc1
activity change, negative = inhibition, %: 24.5

compound: OC(CCN1CCCCC1)(c1ccccc1)C1CCCCC1 (stereo not given)
activity change, negative = inhibition, %: -77.3

compound: COCCc1ccc(OCC(O)CNC(C)C)cc1 (stereo not given)
activity change, negative = inhibition, %: -25.7

compound: CN(C)CCOC(=O)COc1ccc(Cl)cc1
activity change, negative = inhibition, %: 0.868

compound: O=C1CC2(CCCC2)CC(=O)N1CCCCN1CCN(c2ncccn2)CC1
activity change, negative = inhibition, %: -9.19

compound: O=C(O)CN(CCN(CC(=O)O)CC(=O)O)CCN(CC(=O)O)CC(=O)O
activity change, negative = inhibition, %: -4.47

Entry `COc1ccc2c(c1OC)C(=O)O[C@@H]2[C@H]1c2c(cc3c(c2OC)OCO3)CCN1C` — recorded activity change, negative = inhibition = -10.3

Memo: `CCCCNc1c(C(=O)OCC)c(C)nc2c1cnn2CC` , reported activity change, negative = inhibition: -22.8

Short answer for `Cc1scc2c1N(C(=O)CN1CCN(C)CC1)c1ccccc1NC2=O` : activity change, negative = inhibition was -41.8

Entry `CC[N+](C)(C)c1cccc(O)c1` ; activity change, negative = inhibition = -26.4

Data point: `C#CCN(C)CCCOc1ccc(Cl)cc1Cl` ; activity change, negative = inhibition = -4.25

Looking up COCCOC(=O)C1=C(C)NC(C)=C(C(=O)OC(C)C)C1c1cccc([N+](=O)[O-])c1 (stereo not given) , I see its activity change, negative = inhibition listed as -7.25

Noted for `CN(C)CC/C=C1\c2ccccc2COc2ccccc21` : its activity change, negative = inhibition reads -44.9

So, `NC(N)=NC(=O)Cc1c(Cl)cccc1Cl` ? Its activity change, negative = inhibition was 3.14

What the record says about `CC(=O)OCC1=C(C(=O)O)N2C(=O)[C@@H](NC(=O)Cc3cccs3)[C@H]2SC1` : activity change, negative = inhibition is 0.294

Note to self: activity change, negative = inhibition recorded for `CN/C(=C\[N+](=O)[O-])NCCSCc1ccc(CN(C)C)o1` was -7.07

Reported activity change, negative = inhibition ( `CCCOc1ccccc1-c1nc2n[nH]nc2c(=O)[nH]1` ) = 14.8

// activity change, negative = inhibition value for `C[C@H](CS)C(=O)N1CCC[C@H]1C(=O)O` : 2
